- MEASURED TARGET: RecQ-like DNA helicase BLM (Homo sapiens, UniProt P54132, E1143A)
- METHOD DESCRIPTION: Binding affinity to His-tagged BLM E1143A mutant (unknown origin) expressed in Escherichia coli BL21 (DE3) by ITC assay
MEASURED METRIC: pKd
// pKd: -log10(molar conc.)

What value of pKd has been reported for the following molecule? CCN(CC)CCCNc1cc2nc3n(c(=O)c2cc1F)CC/C3=C\c1ccc(C(C)C)cc1 5.22

* * *

- MEASURED TARGET: RecQ-like DNA helicase BLM (Homo sapiens)
- METHOD DESCRIPTION: Inhibition of 5'-biotin labeled duplex forked-DNA binding to BLM (unknown origin) assessed as increase in unbound DNA levels after 1 hr by ELISA
MEASURED METRIC: IC50 (µM)
Entry rule: numbers only, all in µM.

What value of IC50 has been reported for the following compound? CCN(CC)CCCNc1cc2nc3n(c(=O)c2cc1F)CC/C3=C\c1ccc(C(C)C)cc1 3.95

* * *

- MEASURED TARGET: RecQ-like DNA helicase BLM (Homo sapiens, UniProt P54132, I1168A)
- Sequence (P54132 whole entry I1168A): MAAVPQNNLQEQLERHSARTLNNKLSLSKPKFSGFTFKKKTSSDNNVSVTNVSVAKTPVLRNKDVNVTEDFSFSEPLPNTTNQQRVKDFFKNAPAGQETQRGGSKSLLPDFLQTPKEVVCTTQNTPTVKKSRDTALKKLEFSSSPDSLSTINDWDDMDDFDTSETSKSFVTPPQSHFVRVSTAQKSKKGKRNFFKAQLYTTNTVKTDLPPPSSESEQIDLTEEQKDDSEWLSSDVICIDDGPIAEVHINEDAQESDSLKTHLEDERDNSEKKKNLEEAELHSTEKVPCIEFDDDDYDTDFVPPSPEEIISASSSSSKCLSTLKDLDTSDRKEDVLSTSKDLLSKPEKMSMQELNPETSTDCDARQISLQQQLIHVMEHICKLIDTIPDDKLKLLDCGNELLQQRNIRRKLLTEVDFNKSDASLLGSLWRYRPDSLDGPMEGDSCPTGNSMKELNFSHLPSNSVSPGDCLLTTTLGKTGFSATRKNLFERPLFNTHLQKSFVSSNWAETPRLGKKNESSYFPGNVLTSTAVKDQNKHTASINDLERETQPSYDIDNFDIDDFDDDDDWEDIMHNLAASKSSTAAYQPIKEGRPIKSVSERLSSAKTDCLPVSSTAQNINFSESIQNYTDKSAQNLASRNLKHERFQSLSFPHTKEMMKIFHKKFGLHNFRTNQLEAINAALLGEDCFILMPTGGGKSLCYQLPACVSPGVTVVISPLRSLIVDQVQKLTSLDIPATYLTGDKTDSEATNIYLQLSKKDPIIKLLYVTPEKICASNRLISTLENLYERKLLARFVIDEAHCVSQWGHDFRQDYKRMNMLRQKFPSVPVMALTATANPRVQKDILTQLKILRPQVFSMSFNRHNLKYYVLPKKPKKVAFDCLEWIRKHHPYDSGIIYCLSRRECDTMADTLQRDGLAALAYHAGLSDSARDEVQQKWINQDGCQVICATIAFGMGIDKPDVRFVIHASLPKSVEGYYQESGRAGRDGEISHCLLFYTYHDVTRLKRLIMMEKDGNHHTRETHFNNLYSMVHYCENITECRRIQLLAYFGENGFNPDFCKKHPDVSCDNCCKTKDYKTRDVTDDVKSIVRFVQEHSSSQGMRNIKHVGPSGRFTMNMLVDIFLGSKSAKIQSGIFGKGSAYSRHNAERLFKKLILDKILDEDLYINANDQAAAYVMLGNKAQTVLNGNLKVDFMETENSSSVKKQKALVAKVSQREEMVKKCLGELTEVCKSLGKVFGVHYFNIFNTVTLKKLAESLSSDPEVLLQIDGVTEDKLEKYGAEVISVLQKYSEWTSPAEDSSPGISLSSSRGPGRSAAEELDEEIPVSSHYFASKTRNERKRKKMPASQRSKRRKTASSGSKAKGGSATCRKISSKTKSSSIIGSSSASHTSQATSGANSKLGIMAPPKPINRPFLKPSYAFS
- METHOD DESCRIPTION: Binding affinity to His-tagged BLM I1168A mutant (unknown origin) expressed in Escherichia coli BL21 (DE3) by ITC assay
MEASURED METRIC: pKd
// pKd: -log10(molar conc.)

Field: pKd (RecQ-like DNA helicase BLM (Homo sapiens, UniProt P54132, I1168A)). Entry: CCN(CC)CCCNc1cc2nc3n(c(=O)c2cc1F)CC/C3=C\c1ccc(C(C)C)cc1 5.19

All values here come from ChEMBL document CHEMBL4316604.
